targetOrSystem: Monoglyceride lipase (Homo sapiens, UniProt Q99685)
Sequence (Q99685 whole entry): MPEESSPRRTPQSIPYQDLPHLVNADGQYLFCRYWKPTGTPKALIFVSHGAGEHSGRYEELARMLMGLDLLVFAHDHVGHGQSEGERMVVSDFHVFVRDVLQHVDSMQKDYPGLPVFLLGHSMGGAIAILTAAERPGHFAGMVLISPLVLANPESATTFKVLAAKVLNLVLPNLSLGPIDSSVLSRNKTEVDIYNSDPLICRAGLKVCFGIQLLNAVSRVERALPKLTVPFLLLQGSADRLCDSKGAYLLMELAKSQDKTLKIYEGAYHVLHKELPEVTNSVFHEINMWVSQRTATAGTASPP
testMethodNotes: Inhibition of Homo sapiens (human) recombinant monoacylglycerol lipase assessed as inhibition of [3H]-2-oleolylglycerol hydrolysis after 10 min by liquid scintillation counting
I'd appreciate it if you could supply IC50 values for the items below.
Answers are plain numbers, in µM.

Report IC50 for each item below.
1. Oc1ccccc1C(=S)N1CCOCC1
2. S=C(NCCc1ccccc1)c1ccc(Br)cc1
3. S=C(c1ccc(Cl)cc1)N1CCOCC1

-- reply
[60.3, 97.7, 77.6]

-- ask Enter recorded IC50 with Monoglyceride lipase (Homo sapiens, UniProt Q99685) for S=C(NCCc1ccccc1)c1ccc(Cl)c(Cl)c1 here.
-- reply 75.9
